Reference source for all entries: patent US10934286B2

Molecular target: RORγ receptor (Homo sapiens)
Construct: Jurkat pEx/Gal/hRORγ CLBD/HYG pG51uc/blast
Assay: General RORγ Gal4 reporter assay (inverse agonist activity, inhibition of luminescence)
Conditions: Gal4-luciferase reporter in Jurkat cells stably over-expressing hRORγ LBD; overnight incubation; 40 μM to 0.67 nM
molecules and their reported IC50
// units = nM; emit number, no label

Query string: Look up IC50 for this molecule: [2H]C([2H])([2H])N1C(=O)[C@H](F)C[C@H]1C(=O)N1CCC2(S(=O)(=O)c3ccc(F)cc3)c3ncc(C(F)(C(F)(F)F)C(F)(F)F)cc3CCC12 (some centres unmarked) [Example 2]
Result string: 69

Query string: Look up IC50 for this molecule: CC(C)(O)CN1C(=O)CCN1C(=O)N1CCC2(S(=O)(=O)c3cccc(F)c3)c3ccc(C(F)(C(F)(F)F)C(F)(F)F)nc3CCC12 (centres unmarked) [Example 56]
Result string: 28

Query string: Look up IC50 for this molecule: O=C(O)[C@H]1CC[C@H](C(=O)N2CCC3(S(=O)(=O)c4ccc(F)cc4)c4ncc(C(F)(C(F)(F)F)C(F)(F)F)cc4CCC23)CC1 (some centres unmarked) [Example 4]
Result string: 161

Query string: Look up IC50 for this molecule: CC(C)(O)CN1C(=O)[C@H](F)C[C@H]1C(=O)N1CCC2(S(=O)(=O)c3ccc(F)cc3)c3ccc(C(F)(C(F)(F)F)C(F)(F)F)nc3CCC12 (single isomer, unassigned) [Example 43]
Result string: 31

Query string: Look up IC50 for this molecule: O=C(C1CCS(=O)(=O)CC1)N1CCC2(S(=O)(=O)c3cccc(F)c3)c3ccc(C(F)(C(F)(F)F)C(F)(F)F)nc3CCC12 (centres unmarked) [Example 22]
Result string: 9

Query string: Look up IC50 for this molecule: N#CCCN1C(=O)CC[C@H]1C(=O)N1CCC2(S(=O)(=O)c3ccc(F)cc3)c3ccc(OCc4c(Cl)cccc4Cl)nc3CCC12 (single isomer, unassigned) [Example 39]
Result string: 15

Query string: Look up IC50 for this molecule: N#CCCN1C(=O)CC[C@H]1C(=O)N1CCC2(S(=O)(=O)c3ccc(F)cc3)c3cnc(OCc4ccccc4)cc3CCC12 (single isomer, unassigned) [Example 38]
Result string: 4250

Query string: Look up IC50 for this molecule: O=C(N1CCC2(S(=O)(=O)c3ccccc3)c3ccc(OCc4c(Cl)cccc4Cl)nc3CCC12)C(F)(F)F (single isomer, unassigned) [Example 61]
Result string: 802

Query string: Look up IC50 for this molecule: CC(C)(O)CN1C(=O)[C@@H]2C[C@@H]2[C@H]1C(=O)N1CCC2(S(=O)(=O)c3cccc(F)c3)c3ccc(C(F)(C(F)(F)F)C(F)(F)F)nc3CCC12 (some centres unmarked) [Example 49]
Result string: 18

Query string: Look up IC50 for this molecule: CC(C)(O)CN1C(=O)CCN1C(=O)N1CCC2(S(=O)(=O)c3cccc(F)c3)c3cnc(C(F)(C(F)(F)F)C(F)(F)F)cc3CCC12 (centres unmarked) [Example 57]
Result string: 21

Query string: Look up IC50 for this molecule: O=C(O)C1CC2(C1)CC(C(=O)N1CCC3(S(=O)(=O)c4ccc(F)cc4)c4ncc(C(F)(C(F)(F)F)C(F)(F)F)cc4CCC13)C2 (centres unmarked) [Example 9]
Result string: 87

* * *

Molecular target: RORγ receptor (Homo sapiens, UniProt P51449)
Construct: Jurkat pEx/Gal/hRORγ CLBD/HYG pG51uc/blast
Sequence (P51449 269-508 limits assumed): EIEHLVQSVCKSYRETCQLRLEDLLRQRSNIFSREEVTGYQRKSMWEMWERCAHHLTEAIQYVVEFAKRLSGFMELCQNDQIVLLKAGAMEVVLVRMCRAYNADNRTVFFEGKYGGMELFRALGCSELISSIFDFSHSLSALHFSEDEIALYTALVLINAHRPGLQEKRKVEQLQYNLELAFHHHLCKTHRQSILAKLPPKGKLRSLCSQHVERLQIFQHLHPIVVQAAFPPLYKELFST
Experiment: General RORγ Gal4 reporter assay (inverse agonist activity, inhibition of luminescence)
Conditions: Gal4-luciferase reporter in Jurkat cells stably over-expressing hRORγ LBD; overnight incubation; 40 μM to 0.67 nM
measured-parameter: pIC50
pIC50 (log units): -log10 of the concentration in mol/L.

Some solved cases for reference:
- O=C(C1CCS(=O)(=O)CC1)N1CCC2(S(=O)(=O)c3cccc(F)c3)c3cnc(C(F)(C(F)(F)F)C(F)(F)F)cc3CCC12 (stereo not drawn) [Example 15]: 8.10
- O=C(O)[C@H]1CC[C@H](C(=O)N2CCC3(S(=O)(=O)c4ccc(F)cc4)c4ccc(C(F)(C(F)(F)F)C(F)(F)F)nc4CCC23)CC1 (stereo partly drawn) [Example 33]: 8.10
- CC(C)(O)CN1C(=O)[C@H](F)C[C@H]1C(=O)N1CCC2(S(=O)(=O)c3cccc(F)c3)c3cnc(C(F)(C(F)(F)F)C(F)(F)F)cc3CCC12 (stereo partly drawn) [Example 50]: 7.85

Query string: Look up pIC50 for this compound: [2H]C([2H])([2H])N1C(=O)[C@H](F)C[C@H]1C(=O)N1CCC2(S(=O)(=O)c3cccc(F)c3)c3cnc(C(F)(C(F)(F)F)C(F)(F)F)cc3CCC12 (stereo partly drawn) [Example 65]
Result string: 7.04

Query string: Look up pIC50 for this compound: CC(C)(O)CN1C(=O)[C@H](F)C[C@@H]1C(=O)N1CCC2(S(=O)(=O)c3ccc(F)cc3)c3cnc(C(F)(C(F)(F)F)C(F)(F)F)cc3CCC12 (stereo partly drawn) [Example 45]
Result string: 6.28

Query string: Look up pIC50 for this compound: O=C(CC1(O)CCS(=O)(=O)C1)N1CCC2(S(=O)(=O)c3ccc(F)cc3)c3ccc(C(F)(C(F)(F)F)C(F)(F)F)nc3CCC12 (stereo not drawn) [Example 10]
Result string: 7.48

* * *

Molecular target: RORγ receptor (Homo sapiens, UniProt P51449)
Construct: Jurkat pEx/Gal/hRORγ CLBD/HYG pG51uc/blast
Test: General RORγ Gal4 reporter assay (inverse agonist activity, inhibition of luminescence)
Details: Gal4-luciferase reporter in Jurkat cells stably over-expressing hRORγ LBD; overnight incubation; 40 μM to 0.67 nM
pIC50: −log10 of the molar value.
Please note: true applies when pIC50 is 7 or greater, and false applies otherwise.

• C[C@H]1C[C@H](C(=O)O)CC[C@H]1C(=O)N1CCC2(S(=O)(=O)c3cccc(F)c3)c3ccc(C(F)(C(F)(F)F)C(F)(F)F)nc3CCC12 (stereo partly drawn) = true
• O=C(O)[C@H]1CC[C@H](C(=O)N2CCC3(S(=O)(=O)c4ccc(F)cc4)c4ccc(OCc5c(Cl)cccc5Cl)nc4CCC23)CC1 (stereo partly drawn) = true
• C[C@H]1C[C@H](C(=O)O)CC[C@H]1C(=O)N1CCC2(S(=O)(=O)c3ccc(F)cc3)c3cnc(C(F)(C(F)(F)F)C(F)(F)F)cc3CCC12 (stereo partly drawn) = true
• O=C(N1CCC2(S(=O)(=O)c3ccccc3)c3ccc(OCc4c(Cl)cccc4Cl)nc3CCC12)C(F)(F)F (single isomer, unassigned) [Example 62] = false

Let's switch to this compound now.
Query string: Tell me whether pIC50 is at least 7 here: N#CCCN1C(=O)CC[C@H]1C(=O)N1CCC2(S(=O)(=O)c3cccc(F)c3)c3ccc(C(F)(C(F)(F)F)C(F)(F)F)nc3CCC12 (stereo partly drawn)
Result string: true

* * *

compounds and their reported IC50
Molecular target: RORγ receptor (Homo sapiens, UniProt P51449)
Construct: Jurkat pEx/Gal/hRORγ CLBD/HYG pG51uc/blast
Test: General RORγ Gal4 reporter assay (inverse agonist activity, inhibition of luminescence)
Settings: Gal4-luciferase reporter in Jurkat cells stably over-expressing hRORγ LBD; overnight incubation; 40 μM to 0.67 nM
Report field: quantity (unit follows the number).

Some solved cases for reference:
- C[C@H]1C[C@H](C(=O)O)CC[C@H]1C(=O)N1CCC2(S(=O)(=O)c3cccc(F)c3)c3cnc(C(F)(C(F)(F)F)C(F)(F)F)cc3CCC12 (some centres unmarked) [Example 27]: 21 nM
- CC(C)(O)CN1C(=O)CCN1C(=O)N1CCC2(S(=O)(=O)c3ccc(F)cc3)c3ccc(C(F)(C(F)(F)F)C(F)(F)F)nc3CCC12 (single isomer, unassigned) [Example 54]: 16 nM
- [2H]C([2H])([2H])N1C(=O)[C@H](F)C[C@H]1C(=O)N1CCC2(S(=O)(=O)c3cccc(F)c3)c3ccc(C(F)(C(F)(F)F)C(F)(F)F)nc3CCC12 (some centres unmarked) [Example 63]: 13 nM

Query string: Look up IC50 for this compound: [2H]C([2H])([2H])N1C(=O)[C@H](F)C[C@H]1C(=O)N1CCC2(S(=O)(=O)c3ccc(F)cc3)c3ccc(C(F)(C(F)(F)F)C(F)(F)F)nc3CCC12 (some centres unmarked) [Example 64]
Result string: 24 nM

Query string: Look up IC50 for this compound: CC(C)(O)C(=O)N1CCC2(S(=O)(=O)c3ccccc3)c3ccc(C(F)(C(F)(F)F)C(F)(F)F)nc3CCC12 (centres unmarked) [Example 17]
Result string: 45 nM
